Taken from ChEMBL document CHEMBL1134894.

system: D(2) dopamine receptor (Homo sapiens, UniProt P14416)
Sequence (P14416 whole entry): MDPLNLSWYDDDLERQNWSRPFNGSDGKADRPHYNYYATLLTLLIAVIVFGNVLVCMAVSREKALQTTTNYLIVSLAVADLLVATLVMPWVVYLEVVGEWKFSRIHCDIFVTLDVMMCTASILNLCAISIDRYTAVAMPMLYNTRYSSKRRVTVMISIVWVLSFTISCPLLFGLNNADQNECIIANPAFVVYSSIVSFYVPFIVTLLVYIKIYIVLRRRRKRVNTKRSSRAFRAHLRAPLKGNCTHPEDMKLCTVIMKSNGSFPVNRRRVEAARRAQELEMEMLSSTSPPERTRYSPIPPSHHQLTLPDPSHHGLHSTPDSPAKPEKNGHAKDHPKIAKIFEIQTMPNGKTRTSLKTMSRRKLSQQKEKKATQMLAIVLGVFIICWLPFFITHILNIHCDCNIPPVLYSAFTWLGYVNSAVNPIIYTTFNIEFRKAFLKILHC
test-details: Binding affinity of compound measured using [3H]spiperone for the cloned human dopamine receptor D2 short (high/low affinity is given as 130/50000)
outcome-measure: pKi
pKi (log units): -log10 of the concentration in mol/L.

Request: Record request: pKi value, item "CCCN1CCc2nn3ccccc3c2C1"
Result: 6.89
